Every entry's value here was drawn from patent US9512066B2.

Experiment: Insolubility observed in the HepG2 viability assay
Assay type: physicochemical
Conditions: RPMI culture medium of the HepG2 viability assay, 37 °C, kinetic from dmso stock, RPMI medium (1% L-Glu, 10% FCS), read-out: concentration from/at which insoluble
measurement.name: solubility

Here are 2 molecules together with their reported answers.
molecule	measurement.name	result
Oc1ccc(C=NNc2c(F)c(F)c(F)c(F)c2F)c(O)c1 [Example 23]	solubility	100 µM
Oc1ccc(C=NNc2c(Cl)cc(C(F)(F)F)cc2Cl)c(O)c1 [Example 1]	solubility	≥ 50 µM

Moving on to another molecule below.
Prompt: Could you tell me which solubility is on file for O=[N+]([O-])c1ccc(NN=Cc2ccc(O)cc2O)cc1 [Example 33] ?
Response: ≥ 30 µM

---

Molecular target: BSA (Bos taurus)
Sequence (P02769 25-607): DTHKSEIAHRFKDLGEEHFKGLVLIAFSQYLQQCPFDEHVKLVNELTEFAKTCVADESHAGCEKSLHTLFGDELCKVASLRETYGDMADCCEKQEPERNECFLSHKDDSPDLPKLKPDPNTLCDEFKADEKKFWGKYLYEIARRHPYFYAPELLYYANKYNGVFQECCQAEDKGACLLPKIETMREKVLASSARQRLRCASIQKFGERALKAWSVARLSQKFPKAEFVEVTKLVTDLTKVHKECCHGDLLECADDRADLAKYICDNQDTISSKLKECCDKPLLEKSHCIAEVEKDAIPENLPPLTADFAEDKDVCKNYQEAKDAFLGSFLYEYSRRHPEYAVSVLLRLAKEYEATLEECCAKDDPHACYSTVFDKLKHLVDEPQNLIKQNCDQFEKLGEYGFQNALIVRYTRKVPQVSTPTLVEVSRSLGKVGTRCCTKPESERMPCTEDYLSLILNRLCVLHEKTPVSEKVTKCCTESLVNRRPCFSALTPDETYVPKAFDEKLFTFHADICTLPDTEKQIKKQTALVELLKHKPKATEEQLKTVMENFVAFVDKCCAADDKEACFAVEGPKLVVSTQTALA
Assay: Hydrazone hydrolysis in ammonium acetate solution with addition of BSA (RP-HPLC)
Assay type: physicochemical
Details: bovine, BSA (5 µM) in ammonium acetate solution, 20 μM hydrazone, 10 mM ammonium acetate, read-out: free soluble hydrazone after addition of BSA (converted)
measurement.name: fraction unbound at 20 µM

Prompt: Could you tell me which fraction unbound at 20 µM is on file for Oc1ccc(C=NNc2c(Cl)cc(C(F)(F)F)cc2Cl)c(O)c1 [Example 1] ?
Response: ~0.83
